Target: BTK (Homo sapiens, UniProt Q06187)
Sequence (Q06187 whole entry): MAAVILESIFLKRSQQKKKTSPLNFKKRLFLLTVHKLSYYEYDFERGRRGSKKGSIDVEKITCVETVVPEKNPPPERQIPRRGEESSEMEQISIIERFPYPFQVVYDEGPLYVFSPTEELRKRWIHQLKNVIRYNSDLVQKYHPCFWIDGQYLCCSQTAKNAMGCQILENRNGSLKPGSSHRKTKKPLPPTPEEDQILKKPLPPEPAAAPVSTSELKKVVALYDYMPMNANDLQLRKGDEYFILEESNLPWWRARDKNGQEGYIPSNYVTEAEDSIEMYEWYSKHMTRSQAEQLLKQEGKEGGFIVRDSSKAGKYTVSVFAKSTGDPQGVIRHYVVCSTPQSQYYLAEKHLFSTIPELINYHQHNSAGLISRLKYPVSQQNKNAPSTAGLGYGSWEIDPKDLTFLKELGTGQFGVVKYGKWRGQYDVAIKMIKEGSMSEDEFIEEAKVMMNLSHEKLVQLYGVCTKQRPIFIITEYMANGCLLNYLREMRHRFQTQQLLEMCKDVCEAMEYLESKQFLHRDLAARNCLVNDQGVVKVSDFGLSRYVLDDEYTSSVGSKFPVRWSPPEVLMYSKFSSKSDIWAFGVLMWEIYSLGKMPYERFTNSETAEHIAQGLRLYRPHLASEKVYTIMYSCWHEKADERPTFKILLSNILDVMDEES
Assay: Specific kinase IC50 assay
Type: biochemical
Conditions: 1 μM ATP, 10-dose, duplicate
Procedure: In addition, the compound IC50 was determined in six specific kinase assays. The kinases that the compound was assayed against were as follows: BMX/ETK, BTK, EGFR (T790M), ERBB4/HER4, JAK3, and TEC. The assays were carried out in the presence of 1 μM ATP and were conducted in a 10-dose format in duplicate with three-fold serial dilutions starting at 10 μM. […]
MEASURED ATTRIBUTE: IC50
Field: value (include unit after the number)

Task: Which IC50 is listed for C=CC(=O)Nc1cccc(-c2nc(Nc3cccc(N4CCOCC4)c3)nc3[nH]ncc23)c1 [Compound 3] ?
Output: 12.3 nM

Ref: patent US20150252048A1
